- test.target: Zta (BZLF1:Strep/FLAG) (Epstein-Barr virus, UniProt P03206 149-245)
- Sequence (P03206 149-245): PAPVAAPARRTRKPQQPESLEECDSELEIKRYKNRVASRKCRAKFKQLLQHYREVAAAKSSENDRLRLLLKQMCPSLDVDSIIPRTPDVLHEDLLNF
- assay.summary: EMSA; apparent, Hill fit; […]; pH and temperature not stated
- measurement.context: protein: recombinant; tags: tandem StrepII/FLAG; chain copies: 2; label: 32P 5' end; blunt
reported.endpoint: Kd
Give the figure together with its unit, number first.

Example results:
binder	Kd
BRLF1 meZRE2 (dsDNA, 5mC at position 14 of strand 1; bottom-strand methylation not shown in material) DNA 1: CTAAGCTTATGAGCGATTTTATCAC DNA 2: GTGATAAAATCGCTCATAAGCTTAG	12.7 nM
BBLF4 meZRE B (dsDNA, 5mC at position 13 of strand 1; bottom-strand methylation not shown in material) DNA 1: CTCTCCTATGAGCGTTATGTGGACT DNA 2: AGTCCACATAACGCTCATAGGAGAG	18 nM
oriLyt ZRE5 (dsDNA) DNA 1: TTGTCACCTTTGCACATTTGGTCAG DNA 2: CTGACCAAATGTGCAAAGGTGACAA	37.7 nM
BRLF1 ZRE2 (dsDNA) DNA 1: CTAAGCTTATGAGCGATTTTATCAC DNA 2: GTGATAAAATCGCTCATAAGCTTAG	113 nM
BMRF1 meZRE A (dsDNA, 5mC at position 13 of strand 1; bottom-strand methylation not shown in material) DNA 1: TTGGTGGATGTGCGAGCCATAAAGC DNA 2: GCTTTATGGCTCGCACATCCACCAA	20.2 nM
BMRF1 ZRE A (dsDNA) DNA 1: TTGGTGGATGTGCGAGCCATAAAGC DNA 2: GCTTTATGGCTCGCACATCCACCAA	328 nM

--- query ---
For the binder BRLF1 meZRE3 (dsDNA, 5mC at positions 12 and 14 of strand 1; bottom-strand methylation not shown in material) DNA 1: CAGTCAAAATTCGCGATGCTATAAA DNA 2: TTTATAGCATCGCGAATTTTGACTG , what Kd is on record?
135 nM
